# Run Description: Metabolic stability in human liver microsomes after 10 mins
# Assay type: ADME, Microsome
# Condition Summary: read-out: Stability
Assay Readout: remaining at 10 min (%)

- Molecule Smiles: "CC1CCN(c2ccc(CO)cc2NC(=O)c2ccc(C#N)o2)CC1"
  remaining at 10 min (%): 83

P: O=C(Nc1ccccc1N1CCCCC1)c1ccc([N+](=O)[O-])o1
Q: N#Cc1ccc(C(=O)Nc2cc(CO)ccc2N2CCCCC2)o1
R: CC1CCN(c2ccccc2NC(=O)c2ccc([N+](=O)[O-])o2)CC1
Given 3 compounds, produce a descending ranking by remaining at 10 min. Response format: the labels, sorted as the prompt asks.
R, P, Q
(R: 100%, P: 41%, Q: 25%)

* * *

# Study System: Macrophage colony-stimulating factor 1 receptor (Homo sapiens, UniProt P07333)
# Sequence (P07333 whole entry): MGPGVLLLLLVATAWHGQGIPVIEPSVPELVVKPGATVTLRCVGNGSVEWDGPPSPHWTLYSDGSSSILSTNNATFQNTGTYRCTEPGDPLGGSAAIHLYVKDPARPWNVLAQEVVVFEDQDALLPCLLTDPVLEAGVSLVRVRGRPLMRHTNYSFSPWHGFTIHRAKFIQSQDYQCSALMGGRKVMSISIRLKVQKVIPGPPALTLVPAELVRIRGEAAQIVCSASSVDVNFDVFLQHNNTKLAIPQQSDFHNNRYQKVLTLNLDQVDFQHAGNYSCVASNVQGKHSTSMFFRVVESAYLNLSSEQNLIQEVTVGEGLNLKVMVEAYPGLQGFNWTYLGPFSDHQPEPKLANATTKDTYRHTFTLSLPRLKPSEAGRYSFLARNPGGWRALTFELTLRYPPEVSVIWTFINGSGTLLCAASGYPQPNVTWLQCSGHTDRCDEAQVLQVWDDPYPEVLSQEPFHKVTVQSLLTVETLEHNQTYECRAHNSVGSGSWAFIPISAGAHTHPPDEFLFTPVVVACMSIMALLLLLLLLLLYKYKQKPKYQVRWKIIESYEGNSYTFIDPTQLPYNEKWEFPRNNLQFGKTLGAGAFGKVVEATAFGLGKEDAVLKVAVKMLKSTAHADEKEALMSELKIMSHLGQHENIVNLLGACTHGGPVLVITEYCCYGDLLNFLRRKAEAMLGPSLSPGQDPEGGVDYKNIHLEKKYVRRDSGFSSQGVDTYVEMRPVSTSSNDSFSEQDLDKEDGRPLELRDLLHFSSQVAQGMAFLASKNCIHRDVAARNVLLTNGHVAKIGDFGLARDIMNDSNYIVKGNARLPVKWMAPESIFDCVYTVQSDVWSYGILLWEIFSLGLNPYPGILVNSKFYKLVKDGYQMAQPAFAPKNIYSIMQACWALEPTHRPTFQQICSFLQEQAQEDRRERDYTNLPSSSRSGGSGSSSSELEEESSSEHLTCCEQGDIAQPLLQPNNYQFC
# Run Description: Inhibition of ATP-induced autophosphorylation of cFMS tyrosine kinase
pIC50: −log10 of the molar value.
Assay Readout: pIC50

- Compound: "N#Cc1c[nH]c(C(=O)Nc2ccccc2N2CCCCC2)c1"
  Experimental Result: 7.33
- Compound: "CC1CC(C)CN(c2ccccc2NC(=O)c2ccc([N+](=O)[O-])o2)C1 (centres undefined)"
  Experimental Result: 5.28
- Compound: "O=C(Nc1ccccc1N1C=CC=CC=C1)c1ccc([N+](=O)[O-])o1"
  Experimental Result: 6.59
- Compound: "N#Cc1ccc(C(=O)Nc2cc(CN=C(N)N)ccc2N2CCCCC2)o1"
  Experimental Result: 7.47
- Compound: "O=C(Nc1ccccc1N1CCC(CCO)CC1)c1ccc([N+](=O)[O-])o1"
  Experimental Result: 7.37

A: O=C(Nc1ccccc1N1CCOCC1)c1ccc([N+](=O)[O-])o1
B: N#Cc1ccc(C(=O)Nc2cc(COCC(O)CO)ccc2N2CCCCC2)o1 (centres undefined)
Determine, for A and B , which has the greater value of pIC50. // caller expects the label of the chosen entry
B

1: O=C(Nc1ccccc1N1CCC(O)CC1)c1ccc([N+](=O)[O-])o1
2: CC1CCCCN1c1ccccc1NC(=O)c1ccc([N+](=O)[O-])o1 (centres undefined)
3: N#Cc1ccc(C(=O)Nc2ccccc2N2CCCCC2)o1
4: COc1ccc(N2CCCCC2)c(NC(=O)c2ccc(C#N)o2)c1
Order field: pIC50 | Direction: descending (largest first) Respond with the label ranking, as requested.
3, 4, 1, 2
(3: 7.44, 4: 7.05, 1: 6.85, 2: 6.14)

I: N#Cc1ccc(C(=O)Nc2cc(CN)ccc2N2CCCCC2)o1
II: O=C(Nc1ccccc1N1CCCCC1)c1cc([N+](=O)[O-])c[nH]1
Given I and II , report the one with the higher recorded pIC50. Your answer should be the label of the entry you select.
II

* * *

# Study System: Macrophage colony-stimulating factor 1 receptor (Homo sapiens)
# Run Description: Inhibition of ATP-induced autophosphorylation of cFMS tyrosine kinase
pIC50: −log10 of the molar value.
Assay Readout: pIC50

- Molecule Smiles: "O=C(Nc1ccccc1N1CCCC1)c1ccc([N+](=O)[O-])o1"
  Study System: "Macrophage colony-stimulating factor 1 receptor (Homo sapiens)"
  pIC50: 5.72
- Molecule Smiles: "N#Cc1ccc(N2CCCCC2)c(NC(=O)c2ccc(C#N)o2)c1"
  Study System: "Macrophage colony-stimulating factor 1 receptor (Homo sapiens)"
  pIC50: 6.92
- Molecule Smiles: "O=Cc1ccc(C(=O)Nc2ccccc2N2CCCCC2)o1"
  Study System: "Macrophage colony-stimulating factor 1 receptor (Homo sapiens)"
  pIC50: 5.96

a: O=C(Nc1ccccc1N1CCCCC1)c1ccc(Br)o1
b: N#Cc1ccc(C(=O)Nc2cc(O)ccc2N2CCCCC2)o1
c: N#Cc1ccc(C(=O)Nc2cc(C=O)ccc2N2CCCCC2)o1
Ascending by pIC50, please. Your task in answering is to list the labels in the requested order.
a, c, b

Attribution: ChEMBL document CHEMBL1140541
